biological target: Human TRPA1 (Homo sapiens); assay: Assay 1: In vitro cellular testing of TRPA1 modulation (CHO-TREx, Fluo-3 calcium fluorescence, AITC agonist); type: cell-based; parameters: expressed in transfected cells; host or cells: CHO-TREx cells (Invitrogen), vector pcDNA4/TO; conditions: CHO-TREx cells expressing human TRPA1; Fluo-3 fluorescence (FLIPR/Tetra); agonist 15 μM allyl isothiocyanate (AITC); 30 minute antagonist incubation
Sequence (O75762 whole entry): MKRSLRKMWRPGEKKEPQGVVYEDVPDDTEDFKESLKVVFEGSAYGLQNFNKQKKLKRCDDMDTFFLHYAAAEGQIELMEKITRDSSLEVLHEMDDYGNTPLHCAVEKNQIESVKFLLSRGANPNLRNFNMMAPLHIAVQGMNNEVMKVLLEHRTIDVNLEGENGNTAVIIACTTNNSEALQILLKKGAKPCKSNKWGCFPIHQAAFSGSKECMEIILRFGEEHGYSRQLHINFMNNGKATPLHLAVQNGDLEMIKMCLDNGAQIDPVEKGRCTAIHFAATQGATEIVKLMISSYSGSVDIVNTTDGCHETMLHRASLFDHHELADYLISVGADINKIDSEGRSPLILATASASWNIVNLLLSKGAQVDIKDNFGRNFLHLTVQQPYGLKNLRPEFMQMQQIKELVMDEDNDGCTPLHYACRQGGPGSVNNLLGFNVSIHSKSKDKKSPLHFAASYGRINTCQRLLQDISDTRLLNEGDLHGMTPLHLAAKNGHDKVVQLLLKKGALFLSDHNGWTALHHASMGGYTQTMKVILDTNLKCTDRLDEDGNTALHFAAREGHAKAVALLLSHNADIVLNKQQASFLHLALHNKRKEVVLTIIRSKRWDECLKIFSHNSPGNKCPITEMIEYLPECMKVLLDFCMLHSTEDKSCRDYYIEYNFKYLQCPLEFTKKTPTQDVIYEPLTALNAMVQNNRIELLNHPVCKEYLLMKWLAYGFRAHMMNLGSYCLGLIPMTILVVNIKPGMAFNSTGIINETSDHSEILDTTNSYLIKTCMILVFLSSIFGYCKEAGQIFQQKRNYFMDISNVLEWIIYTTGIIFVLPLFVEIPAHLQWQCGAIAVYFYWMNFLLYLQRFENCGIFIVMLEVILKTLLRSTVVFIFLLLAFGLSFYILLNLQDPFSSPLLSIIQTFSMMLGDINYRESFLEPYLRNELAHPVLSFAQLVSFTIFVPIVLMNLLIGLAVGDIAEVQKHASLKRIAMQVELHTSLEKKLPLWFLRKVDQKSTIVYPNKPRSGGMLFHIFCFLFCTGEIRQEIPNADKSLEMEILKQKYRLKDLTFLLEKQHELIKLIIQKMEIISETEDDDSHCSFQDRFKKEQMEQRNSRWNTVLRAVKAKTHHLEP
quantity: IC50 (nM)
Please give a number only; it is taken to be in nM.

{"compound": "COc1ccc(S(=O)(=O)N2CCC[C@H]2C(=O)NCc2cc(-c3ccc(C(F)(F)F)cc3)ncn2)cc1", "IC50, nM": 383}
{"compound": "O=C(NCc1cc(-c2ccc(C(F)(F)F)cc2)nc(-c2ccccc2C(F)(F)F)n1)[C@@H]1CCCN1S(=O)(=O)c1ccc(F)cc1", "IC50, nM": 11}
{"compound": "O=C(NCc1cc(-c2ccc(OC(F)(F)F)cc2)ccn1)[C@@H]1CC(F)(F)CN1S(=O)(=O)c1ccc(Cl)s1", "IC50, nM": 78}
{"compound": "O=C(NCc1cccc(-c2ccccc2OC(F)(F)F)c1)[C@@H]1CCCN1S(=O)(=O)c1ccc(F)cc1", "IC50, nM": 746}
{"compound": "CNc1nc(CNC(=O)[C@@H]2CCCN2S(=O)(=O)c2ccc(F)cc2)cc(-c2ccc(C(F)(F)F)cc2)n1", "IC50, nM": 21}
{"compound": "CC(=O)N(C)C1CCN(c2nc(CNC(=O)[C@@H]3CCCN3S(=O)(=O)c3ccc(Cl)s3)cc(-c3ccc(C(F)(F)F)cc3)n2)C1 (stereo partly drawn)", "IC50, nM": 426}
{"compound": "CC(Nc1cc(CNC(=O)[C@@H]2CC(F)(F)CN2S(=O)(=O)c2ccc(Cl)s2)cc(-c2ccc(C(F)(F)F)cc2)n1)c1ccccc1 (stereo partly drawn)", "IC50, nM": 1430}
{"compound": "O=C(NCc1cccc(-c2cccc(C(F)(F)F)c2)c1)[C@@H]1CCCN1S(=O)(=O)c1ccc(F)cc1", "IC50, nM": 253}
{"compound": "O=C(NCc1cc(NCc2cccnc2)nc(-c2ccc(C(F)(F)F)cc2)c1)[C@@H]1C=CCN1S(=O)(=O)c1ccc(Cl)s1", "IC50, nM": 2500}
{"compound": "O=C(NCc1cc(-c2ccc(C(F)(F)F)cc2)ncn1)[C@@H]1CCCN1S(=O)(=O)c1ccc(C(F)(F)F)cc1", "IC50, nM": 587}

Qu. Returns the measured IC50 for the input compound. Input: CN(C)c1cc(CNC(=O)[C@@H]2C=CCN2S(=O)(=O)c2ccc(F)cc2)cc(-c2ccc(C(F)(F)F)cc2)n1
Ans. 382

Qu. Returns the measured IC50 for the input compound. Input: N#Cc1ccc(S(=O)(=O)N2CCC[C@H]2C(=O)NCc2cc(-c3ccc(C(F)(F)F)cc3)ncn2)cc1
Ans. 1090

Qu. Returns the measured IC50 for the input compound. Input: CC(Nc1cc(CNC(=O)[C@@H]2CCCN2S(=O)(=O)c2ccc(Cl)s2)cc(-c2ccc(C(F)(F)F)cc2)n1)c1ccccn1 (stereo partly drawn)
Ans. 64

Qu. Returns the measured IC50 for the input compound. Input: CC(C)CN1CCN(c2nc(CNC(=O)[C@@H]3CCCN3S(=O)(=O)c3ccc(Cl)s3)cc(-c3ccc(C(F)(F)F)cc3)n2)CC1
Ans. 24

Qu. Returns the measured IC50 for the input compound. Input: CC(Nc1cc(CNC(=O)[C@@H]2CC(F)(F)CN2S(=O)(=O)c2ccc(F)cc2)cc(-c2ccc(C(F)(F)F)cc2)n1)c1ccncc1 (stereo partly drawn)
Ans. 2520
